meta.source: PubChem BioAssay (NCI)

test system: K-562 leukemia; assay: NCI tumour cell line growth inhibition, 48 h
Recorded Metric: TGI

>>> observed_measurement("CSc1c(C#N)c(N)nc2c(N=Nc3ccc(Cl)cc3)c(N)nn12")
"4.75 µM"
>>> observed_measurement("CN(C)c1ccccc1CN1CCCN(Cc2ccccc2N(C)C)C1c1ccncc1")
"23.9 µM"
>>> observed_measurement("COc1ccc(OC)c(/C=C(/C)[N+](=O)[O-])c1")
"> 100 µM"
>>> observed_measurement("Cc1cc(C)nc(NS(=O)(=O)c2ccc(Nc3c4ccc(Cl)cc4nc4c(C(=O)Nc5ccc(S(N)(=O)=O)cc5)cccc34)cc2)n1")
"> 100 µM"
>>> observed_measurement("COc1ccc(/C=C2\\N=C(c3ccccc3)N(N=C3NC(=O)CC(=O)N3)C2=O)cc1")
"> 100 µM"
>>> observed_measurement("CN(C)CCNC(=O)c1cccc2c1nc(-c1ccccc1)c1ccccc12")
"6.32 µM"
>>> observed_measurement("O=C(/C=C/c1ccc(/C=C/C(=O)c2ccc(O)cc2)cc1)c1ccc(O)cc1")
"> 100 µM"
>>> observed_measurement("CO/N=C(\\C)COc1ccc2c(=O)c(-c3ccccc3)coc2c1")
"> 100 µM"
>>> observed_measurement("O=C(O)c1cnc2[nH]ccn2c1=O")
"> 100 µM"
>>> observed_measurement("O=C(/C=C/c1cc([N+](=O)[O-])ccc1Cl)c1ccccc1")
"> 100 µM"
>>> observed_measurement("CC(=O)c1ccc(NC(=O)C(=O)Nn2c(=S)[nH]c3ccccc3c2=O)cc1")
"> 100 µM"
>>> observed_measurement("CC(C)(C)c1cc2c3c(c1)C(C(F)(F)F)(C(F)(F)F)O[Te]3(C)OC2(C(F)(F)F)C(F)(F)F")
"> 100 µM"
>>> observed_measurement("Brc1ccc2c([C@H]3CN[C@@H](c4c[nH]c5cc(Br)ccc45)CN3)c[nH]c2c1")
"4.02 µM"
>>> observed_measurement("CC1C2CC(C(S(=O)(=O)N3CCOCC3)/C2=N\\O)C1(C)C (stereo not given)")
"> 100 µM"
>>> observed_measurement("O=C(O)c1cn2c3c(cc(N4CCN(CCO)CC4)cc3c1=O)SCC2")
"> 100 µM"
>>> observed_measurement("COC(=O)c1c(N)n[nH]c1N")
"> 100 µM"
>>> observed_measurement("CC(=O)OC(CCC1(C)OC1COc1ccc(CCNC(=O)c2ccccc2)cc1)C(C)(C)OC(C)=O (stereo not given)")
"> 100 µM"
>>> observed_measurement("N=c1c2c(-c3ccccc3)c[nH]c2ncn1N")
"> 100 µM"
>>> observed_measurement("CC(C)[Si](OC1=CCC[C@H]2NC(=O)[C@@H](Cc3ccccc3)[C@@]12C)(C(C)C)C(C)C")
"12.5 µM"
>>> observed_measurement("CC(=O)OCC1OC(SC2OC(COC(C)=O)C(OC(C)=O)C(OC(C)=O)C2OC(C)=O)C(OC(C)=O)C(OC(C)=O)C1OC(C)=O (stereo not given)")
"> 100 µM"
